# Measured Target: Sho1, P40073
# Sequence (P40073 287-367): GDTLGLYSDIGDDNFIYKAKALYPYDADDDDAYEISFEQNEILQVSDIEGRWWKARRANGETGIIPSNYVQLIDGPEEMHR
# Assay Protocol: SPOT array
# Experimental Setup: median of control spots 1148
Measurement Name: SPOT intensity
Output: the number by itself.

Q: Let me know recorded SPOT intensity for `GDHPKGPPPPPPPDE` , thanks.
Ans: 0

Q: Consider the binder `PIVPSSPAPPLPLSG` . State its measured SPOT intensity.
Ans: 0

Q: Tell me measured SPOT intensity for `PKMLPIPSKPTLFDL` please.
Ans: 164

Q: Give recorded SPOT intensity. `YYNRQELALPKRMSS`
Ans: 9
